Test: Solvent solubility screen of Compound A (aliquot addition, HPLC of saturated solutions)
Type: physicochemical
Settings: dichloromethane:methanol (75:25% v/v), organic solvent or mixture, thermodynamic from solid, Dichloromethane:Methanol (75:25% v/v); read-out: Approximate Solubility
PROPERTY NAME: solubility (mg/mL)
Give a bare numeral; the unit mg/mL is implied.

Input "COc1cc(O[C@H]2C(C)(C)[C@H](NC(=O)c3ccc(N4CCC(CN5CCN(c6ccc(C(=O)N[C@H]7CCC(=O)NC7=O)c(F)c6)CC5)CC4)cc3)C2(C)C)ccc1C#N" , output reported solubility. 100

###

Assay: Primary salt screen: XRPD post temperature cycling/evaporation, post drying and post storage at 40° C./75% RH
Type: physicochemical
Conditions: Compound A + 1.05 eq. counterion (= label); DCM:Methanol (50:50 % v/v)
PROPERTY NAME: XRPD results post temperature cycling and evaporation

Examples with their reported XRPD results post temperature cycling and evaporation follow.
Cc1ccc(S(=O)(=O)O)cc1: A e
O=C(O)CC(O)(CC(=O)O)C(=O)O: A e
O=C(O)/C=C\C(=O)O: A e
O=C(O)C(O)C(O)C(=O)O (centres unmarked): A e
Cl [Hydrochloric acid]: t S
O=C(O)CC(=O)O: A e

Input "O=C(O)/C=C/C(=O)O" , output reported XRPD results post temperature cycling and evaporation. A e

Input "O=P(O)(O)O" , output reported XRPD results post temperature cycling and evaporation. S t *

###

Test: Co-crystal screen: XRPD post temperature cycling and post storage at 40° C./75% RH;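 also: value is the Compound A free base XRPD pattern number and 9 means a potential new one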
Assay type: physicochemical
Conditions: Compound A + 1.05 eq. co-former (= label); THF
PROPERTY NAME: XRPD results, primary co-crystal screen post temperature cycling
Just the number.

Input "N[C@@H](Cc1c[nH]cn1)C(=O)O" , output reported XRPD results, primary co-crystal screen post temperature cycling. 1

Input NC(=O)c1cccnc1 [Nicotinamide] , output reported XRPD results, primary co-crystal screen post temperature cycling. 1

Input "O=C(O)[C@@H]1CCCN1" , output reported XRPD results, primary co-crystal screen post temperature cycling. 1

Input "NC(N)=O" , output reported XRPD results, primary co-crystal screen post temperature cycling. 1

Input "COC(=O)c1ccc(O)cc1" , output reported XRPD results, primary co-crystal screen post temperature cycling. 1

###

Test: Solvent solubility screen of Compound A (aliquot addition, HPLC of saturated solutions)
Format: physicochemical
Conditions: 1,4-dioxane, organic solvent or mixture, thermodynamic from solid, 1,4-Dioxane; read-out: Approximate solubility
PROPERTY NAME: solubility

Input "COc1cc(O[C@H]2C(C)(C)[C@H](NC(=O)c3ccc(N4CCC(CN5CCN(c6ccc(C(=O)N[C@H]7CCC(=O)NC7=O)c(F)c6)CC5)CC4)cc3)C2(C)C)ccc1C#N" , output reported solubility. ~100 mg/mL

###

Experiment: Solvent solubility screen of Compound A (aliquot addition, HPLC of saturated solutions)
Format: physicochemical
Conditions: dichloromethane:methanol (50:50% v/v), organic solvent or mixture, thermodynamic from solid, Dichloromethane:Methanol (50:50% v/v); read-out: Approximate Solubility
PROPERTY NAME: solubility (mg/mL)
Give a bare numeral; the unit mg/mL is implied.

Input COc1cc(O[C@H]2C(C)(C)[C@H](NC(=O)c3ccc(N4CCC(CN5CCN(c6ccc(C(=O)N[C@H]7CCC(=O)NC7=O)c(F)c6)CC5)CC4)cc3)C2(C)C)ccc1C#N [Compound A] , output reported solubility. 50

Origin of measurements: patent US20240336566A1
